Target: Cdk5 protein alone (recombinant) (UniProt Q00535 1-292)
Test: MST
Measurement Name: pKd
Field pKd (float): negative decimal logarithm of the concentration in molar.

Incoming: Which pKd reading was recorded for the binder ARAFGIPVRCYS [Cdk5i peptide] ?
Outgoing: 4.80
